Readings of viability at 10 µM for the listed compounds
Test system: MDA-MB-453
Experiment: Cell viability assay (PrestoBlue, 72 h), MDA-MB-453
Type: cell-based
Details: Homo sapiens, MDA-MB-453, 72 h; 10 µM; mean of at least two determinations, within ± 15%; read-out: Survival rate at 10 uM MDA-MB-453
QUANTITY NAME: viability at 10 µM (%)

| COMPOUND SMILES | QUANTITY NAME | UNIT STRING | RESULT |
| --- | --- | --- | --- |
| CCN(CC)S(=O)(=O)c1ccc(C(=O)Nc2nc(-c3ccc(Cl)c(Cl)c3)cs2)cc1 | viability at 10 µM | % | 29 |
| Nc1c(C(=O)c2ccccc2)sc2nc3c(cc12)CCCC3 | viability at 10 µM | % | 15 |
| Cc1cccc(C(=O)Nc2nc(-c3cc(C)ccc3C)cs2)c1 | viability at 10 µM | % | 54 |
| Cc1cc(C)c(-c2csc(NC(=O)c3ccc(Br)cc3)n2)c(C)c1 | viability at 10 µM | % | 21 |

###

Molecular target: mu-opioid receptor (MOR) (Homo sapiens)
Sequence (P35372 whole entry): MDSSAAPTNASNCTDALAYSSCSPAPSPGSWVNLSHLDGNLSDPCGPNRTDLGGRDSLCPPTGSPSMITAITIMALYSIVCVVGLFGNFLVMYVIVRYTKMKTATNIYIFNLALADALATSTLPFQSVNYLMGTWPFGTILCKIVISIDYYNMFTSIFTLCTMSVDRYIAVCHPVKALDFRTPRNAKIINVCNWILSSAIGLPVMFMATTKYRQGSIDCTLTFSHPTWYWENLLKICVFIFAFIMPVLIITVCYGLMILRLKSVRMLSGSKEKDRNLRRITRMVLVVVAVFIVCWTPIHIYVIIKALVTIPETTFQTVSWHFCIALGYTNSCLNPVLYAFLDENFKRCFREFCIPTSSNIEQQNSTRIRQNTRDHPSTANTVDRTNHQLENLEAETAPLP
Test: FLIPR calcium assay in CHO-K1/MOR/Gα15 cells
pEC50: −log10 of the molar value.

| MOLECULE | pEC50 |
| --- | --- |
| Cc1ccc2c(Cl)c(C(=O)NCC(c3ccccc3Cl)N(C)C)sc2c1 (centres unmarked) | 5.21 |
| O=C(Nc1ccc(S(=O)(=O)NC2CCCCC2)cc1)C1CCCCC1 | 6.25 |
| CN(CCNC(=O)c1ccc(C(=O)NCCN(C)Cc2ccccc2)cc1)Cc1ccccc1 | 5.24 |
| Cc1ccc(C(=O)Nc2cnc3ccccc3c2)cc1C | 5.36 |
| Cc1cc(N2CCN(C)CC2)nc(N2CCN(C(=O)c3ccc(C)c(C)c3)CC2)n1 | 5.09 |

###

Tested on: MCF10A, a nonmalignant mammary epithelial cell line
Experiment: Cell viability assay (PrestoBlue, 72 h), MCF10A
Type: cell-based
Conditions: human, 72 h, 10 µM
Method: The cells were seeded in 384-well clear plates with a density of 8 × 10^2 cells/well for MCF-10A and BT-549 cell lines, 1 × 10^3 cells/well for MDA-MB-453, and 2 × 10^3 cells/well for MDA-MB-231 overnight. […] The plates were incubated for an additional 1.5 h at 37 °C in a humidified 5% CO2 atmosphere; the relative fluorescence unit (RFU) in the reaction mixture will then be recorded (Ex560/Em590) by Victor^2-Vplate reader (PerkinElmer, Waltham, MA, USA). […]
Consider the following partition of reported Survival rate at 10 uM MCF10A into named classes: bottom range (below 10%), center range (10% to below 40%), top range (40% or more)

| COMPOUND SMILES | LABEL VALUE |
| --- | --- |
| Cc1cc(C)c(-c2csc(NC(=O)c3ccc(Br)cc3)n2)c(C)c1 | top range |
| O=C(N/N=C/c1ccccc1Cl)c1[nH]c2ccc(Cl)cc2c1-c1ccccc1 | bottom range |
| Cn1ncc(Cl)c1C(=O)Nc1ccc2nc(NC(=O)C3CCCCC3)sc2c1 | bottom range |
| Nc1c(C(=O)c2ccccc2)sc2nc3c(cc12)CCCC3 | bottom range |
| Cc1cccc(C(=O)Nc2nc(-c3cc(C)ccc3C)cs2)c1 | top range |
| COC(=O)Nc1nc2ccc(C(=O)c3ccccc3)cc2[nH]1 | center range |
| CCN(CC)S(=O)(=O)c1ccc(C(=O)Nc2nc(-c3ccc(Cl)c(Cl)c3)cs2)cc1 | top range |
| Cc1ccc(-c2csc(NC(=O)c3ccc(F)cc3)n2)c(C)c1 | top range |
| CCN(C(=O)c1sc(NC(=O)CCl)c(C#N)c1C)C1CCCCC1 | center range |
| O=C(N/N=C/c1ccc(Br)cc1)c1cc2ccccc2[nH]1 | center range |

###

Below, each entry is listed with its recorded pIC50.
Tested on: MDA-MB-453
Experiment: Cell viability assay (PrestoBlue, 72 h), MDA-MB-453
Assay type: cell-based
Details: Homo sapiens, MDA-MB-453; Figure 3C, unit inferred; read-out: IC50 values MDA-MB-453
pIC50: −log10 of the molar value.

| COMPOUND SMILES | pIC50 |
| --- | --- |
| O=C(c1ccc(Oc2ccc([N+](=O)[O-])cc2)cc1)c1ccc(Oc2ccc([N+](=O)[O-])cc2)cc1 | < 4.70 |
| Cc1cc(C)c(-c2csc(NC(=O)c3ccc(Br)cc3)n2)c(C)c1 | 5.28 |
| Cc1cc(C)c(C)c(-c2csc(NC(=O)c3cc([N+](=O)[O-])cc([N+](=O)[O-])c3)n2)c1C | < 4.70 |
| CCN(CC)S(=O)(=O)c1ccc(C(=O)Nc2nc(-c3ccc(Cl)c(Cl)c3)cs2)cc1 | < 4.70 |

###

Test system: BT-549
Experiment: Cell viability assay (PrestoBlue, 72 h), BT-549
Assay type: cell-based
Conditions: Homo sapiens, BT-549, 72 h; 10 µM; mean of at least two determinations, within ± 15%; read-out: Survival rate at 10 uM BT-549
Lab note: cut-off is 20%. Strictly less in viability at 10 µM is Y. Exactly 20% or more is N.

| COMPOUND | LABEL VALUE |
| --- | --- |
| Cc1cccc(C(=O)Nc2nc(-c3cc(C)ccc3C)cs2)c1 [Compound 9] | N |
| O=C(N/N=C/c1ccc(Br)cc1)c1cc2ccccc2[nH]1 [Compound 11] | N |
| Cc1ccc(-c2csc(NC(=O)c3ccc(F)cc3)n2)c(C)c1 [Compound 4] | N |
| CCN(CC)S(=O)(=O)c1ccc(C(=O)Nc2nc(-c3ccc(Cl)c(Cl)c3)cs2)cc1 [Compound 7] | N |
| Nc1c(C(=O)c2ccccc2)sc2nc3c(cc12)CCCC3 [Compound 2] | Y |
| O=C(c1ccc(Oc2ccc([N+](=O)[O-])cc2)cc1)c1ccc(Oc2ccc([N+](=O)[O-])cc2)cc1 [Compound 8] | N |
| Cc1cc(C)c(-c2csc(NC(=O)c3ccc(Br)cc3)n2)c(C)c1 [Compound 3] | N |
| Cn1ncc(Cl)c1C(=O)Nc1ccc2nc(NC(=O)C3CCCCC3)sc2c1 [Compound 6] | N |
| COC(=O)Nc1nc2ccc(C(=O)c3ccccc3)cc2[nH]1 [Compound 12] | Y |
| Cc1cc(C)c(C)c(-c2csc(NC(=O)c3cc([N+](=O)[O-])cc([N+](=O)[O-])c3)n2)c1C [Compound 10] | N |
| O=C(N/N=C/c1ccccc1Cl)c1[nH]c2ccc(Cl)cc2c1-c1ccccc1 [Compound 1] | Y |
| CCN(C(=O)c1sc(NC(=O)CCl)c(C#N)c1C)C1CCCCC1 [Compound 5] | Y |

###

System: MDA-MB-453
Assay: Cell viability assay (PrestoBlue, 72 h), MDA-MB-453
Assay type: cell-based
Conditions: Homo sapiens, MDA-MB-453, 72 h; 10 µM; mean of at least two determinations, within ± 15%; read-out: Survival rate at 10 uM MDA-MB-453

| COMPOUND | viability at 10 µM, % |
| --- | --- |
| CCN(C(=O)c1sc(NC(=O)CCl)c(C#N)c1C)C1CCCCC1 [Compound 5] | -16 |
| COC(=O)Nc1nc2ccc(C(=O)c3ccccc3)cc2[nH]1 [Compound 12] | 22 |
| O=C(N/N=C/c1ccccc1Cl)c1[nH]c2ccc(Cl)cc2c1-c1ccccc1 [Compound 1] | 17 |
| Cc1ccc(-c2csc(NC(=O)c3ccc(F)cc3)n2)c(C)c1 [Compound 4] | 53 |
| O=C(c1ccc(Oc2ccc([N+](=O)[O-])cc2)cc1)c1ccc(Oc2ccc([N+](=O)[O-])cc2)cc1 [Compound 8] | 47 |
| Cc1cc(C)c(C)c(-c2csc(NC(=O)c3cc([N+](=O)[O-])cc([N+](=O)[O-])c3)n2)c1C [Compound 10] | 25 |
| Cn1ncc(Cl)c1C(=O)Nc1ccc2nc(NC(=O)C3CCCCC3)sc2c1 [Compound 6] | 19 |
| O=C(N/N=C/c1ccc(Br)cc1)c1cc2ccccc2[nH]1 [Compound 11] | 29 |

###

Tested on: MCF10A, a nonmalignant mammary epithelial cell line
Assay: Cell viability assay (PrestoBlue, 72 h), MCF10A
Type: cell-based
Conditions: human, 72 h, 10 µM
Readings of MCF-10A Inhibition rate for the listed molecules
QUANTITY NAME: MCF-10A Inhibition rate (%)

| MOLECULE | QUANTITY NAME | UNIT STRING | RESULT |
| --- | --- | --- | --- |
| O=C(Nc1ncc(-c2ccncc2)s1)c1ccc(F)cc1 [Compound 22] | MCF-10A Inhibition rate | % | -5 |
| COC(=O)c1ccc(C(=O)Nc2nc(-c3ccc(C)cc3C)cs2)cc1 [Compound 18] | MCF-10A Inhibition rate | % | 4 |
| Cc1ccc(-c2csc(NC(=O)c3ccc(F)cc3)n2)c(C)c1 [Compound 15] | MCF-10A Inhibition rate | % | -8 |
| COc1ccc(C(=O)Nc2nc(-c3ccc(C)cc3C)cs2)cc1 [Compound 16] | MCF-10A Inhibition rate | % | 8 |
| Cc1ccc(-c2csc(NC(=O)c3ccsc3)n2)c(C)c1 [Compound 19] | MCF-10A Inhibition rate | % | 14 |
| COc1ccc(C(=O)Nc2ncc(-c3ccncc3)s2)cc1 [Compound 23] | MCF-10A Inhibition rate | % | 35 |
| Cc1ccc(-c2csc(NC(=O)c3cc(C)on3)n2)c(C)c1 [Compound 20] | MCF-10A Inhibition rate | % | 14 |
